Measured IC50 accompanies every entry in the list below.
Test system: Plasmodium falciparum TM91C235
Test: In vitro antimalarial [3H]-hypoxanthine incorporation assay, TM91C235
Format: cell-based
Details: Plasmodium falciparum; P. falciparum TM91C235 (multiple drug resistant isolate), 72 hours exposure
Response body: numeric value in µg/mL, unit text excluded.

Examples with answers:
CC[C@H]1OC(=O)[C@H](C)[C@@H](O[C@H]2C[C@@](C)(OC)[C@@H](O)[C@H](C)O2)[C@H](C)[C@@H](O[C@@H]2O[C@H](C)C[C@H](N(C)C)[C@H]2O)[C@](C)(O)C[C@@H](C)CN(CCCNC(=O)Nc2ccc(C(C)=O)cc2)[C@H](C)[C@@H](O)[C@]1(C)O.O=CO [Example 65]	0.398
CC[C@H]1OC(=O)[C@H](C)[C@@H](O[C@H]2C[C@@](C)(OC)[C@@H](O)[C@H](C)O2)[C@H](C)[C@@H](O[C@@H]2O[C@H](C)C[C@H](N(C)C)[C@H]2O)[C@](C)(O)C[C@@H](C)CN(CCCNC(=S)NCc2ccco2)[C@H](C)[C@@H](O)[C@]1(C)O.O=CO [Example 143]	0.234

Attention now turns to another entry.
Any idea what its IC50 is? The molecule is CC[C@H]1OC(=O)[C@H](C)[C@@H](O[C@H]2C[C@@](C)(OC)[C@@H](O)[C@H](C)O2)[C@H](C)[C@@H](O[C@@H]2O[C@H](C)C[C@H](N(C)C)[C@H]2O)[C@](C)(O)C[C@@H](C)CN(CCCNC(=S)Nc2ccc(Cl)c(C(F)(F)F)c2)[C@H](C)[C@@H](O)[C@]1(C)O [Example 124]
0.0122
